Biological target: protein phosphatase-1
Experiment: Inhibition of protein phosphatase-1
VALUE_KIND: pIC50
The quantity pIC50 is defined as the negative base-10 logarithm of the molar concentration.

Input line: Report pIC50 for CCCCCCCCCCCCC/C=C/[C@@H](O)[C@H](COP(=O)(O)O)NC(=O)CCCCCCCCCCCCCCC [C-1-P, D-erythro-C16 ceramide-1-phosphate] please.
Output line: 7.30

====

Molecular target: protein phosphatase 2A
Test: Inhibition of protein phosphatase 2A
VALUE_KIND: IC50 (nM)
Give a bare numeral; the unit nM is implied.

Input line: Tell me reported IC50 for CCCCCCCCCCCCC/C=C/[C@@H](O)[C@H](COP(=O)(O)O)NC(=O)CCCCCCCCCCCCCCC [C-1-P, D-erythro-C16 ceramide-1-phosphate] , tested with protein phosphatase 2A.
Output line: 50
